Measured IC50 (ALK tyrosine kinase receptor (Homo sapiens))
Recorded endpoint: IC50 (nM)

Sample records with IC50:
CN1CCC(Nc2cc(N3CCN(C)CC3)ccc2C(=O)Nc2n[nH]c3ccc(Cc4cc(F)cc(F)c4)cc23)CC1	15
CN1CCN(c2ccc(C(=O)Nc3n[nH]c4ccc(Cc5cc(F)cc(F)c5)cc34)c(NCCO)c2)CC1	26
CN(C)CCN(C)C(=O)c1ccc(C(=O)Nc2n[nH]c3ccc(Cc4cc(F)cc(F)c4)cc23)c(NC2CCOCC2)c1	15
CN1CCN(c2ccc(C(=O)Nc3n[nH]c4ccc(Cc5cc(F)cc(F)c5)cc34)c(NCc3ccccc3)c2)CC1	378

[1] CN1CCN(c2ccc(C(=O)Nc3n[nH]c4ccc(Cc5ccccc5)cc34)c(NC3CCOCC3)c2)CC1
[2] CN1CCN(c2ccc(C(=O)Nc3n[nH]c4ccc(Cc5cc(F)ccc5F)cc34)c(NC3CCOCC3)c2)CC1
QUERY: Smaller IC50 value? Options are 1 and 2 // caller expects the label of the chosen entry
RESULT: 2

[1] COC[C@@H](C)Nc1cc(N2CCN(C)CC2)ccc1C(=O)Nc1n[nH]c2ccc(Cc3cc(F)cc(F)c3)cc12
[2] CN1CCN(c2ccc(C(=O)Nc3n[nH]c4ccc(Cc5cc(F)cc(F)c5)cc34)c(NCCF)c2)CC1
[3] CN1CCN(c2ccc(C(=O)Nc3n[nH]c4ccc(Cc5cccc(F)c5)cc34)c(NC3CCOCC3)c2)CC1
QUERY: Arrange items by their IC50 values in increasing order. In plain terms: list the labels in the order you were asked to.
RESULT: 2, 3, 1
(2: 14 nM, 3: 30 nM, 1: 72 nM)

###

assay: Cmax in Beagle dog at 10 mg/kg, iv administered as single dose by LC-MS/MS analysis; format: ADME, organism-based, Canis lupus familiaris; set-up: dose 10 mg/kg, route intravenous; settings: in vivo
Recorded endpoint: Cmax (µM)
Write down the numeric answer in µM and omit the unit.

QUERY: Kindly indicate its recorded Cmax. Item: CN1CCN(c2ccc(C(=O)Nc3n[nH]c4ccc(Cc5cc(F)cc(F)c5)cc34)c(NC3CCOCC3)c2)CC1 [ENTRECTINIB]
RESULT: 8.6

###

experiment: Oral bioavailability in Beagle dog at 10 mg/kg administered as single dose by LC-MS/MS analysis; assay type: ADME, organism-based, Canis lupus familiaris; settings: in vivo
Recorded endpoint: bioavailability (%)
Write down the numeric answer in % and omit the unit.

QUERY: Kindly indicate its recorded bioavailability. Item: CN1CCN(c2ccc(C(=O)Nc3n[nH]c4ccc(Cc5cc(F)cc(F)c5)cc34)c(NC3CCOCC3)c2)CC1 [ENTRECTINIB]
RESULT: 32

###

assay: Antiproliferative activity against human KARPAS299 cells incubated for 72 hrs by cell titer-glo assay; conditions: KARPAS-299, 72 h
Recorded endpoint: pIC50
# pIC50: negative log10 of molar concentration; output just the value

Sample records with pIC50:
C[C@@H](c1cc(F)cc(F)c1)c1ccc2[nH]nc(NC(=O)c3ccc(N4CCN(C)CC4)cc3NC3CCOCC3)c2c1	7.80
CN1CCN(c2ccc(C(=O)Nc3n[nH]c4ccc(Cc5cc(F)cc(F)c5)cc34)c(NC3CCOCC3)c2)CC1	7.51
CN1CCN(c2ccc(C(=O)Nc3n[nH]c4ccc(Cc5cc(F)cc(F)c5)cc34)c(N[C@H]3CC[C@@H](O)CC3)c2)CC1	6.79
CN1CCN(c2ccc(C(=O)Nc3n[nH]c4ccc(Cc5cc(F)cc(F)c5)cc34)c(NCC3CN(C)C3)c2)CC1	6.41
COCCNc1cc(N2CCN(C)CC2)ccc1C(=O)Nc1n[nH]c2ccc(Cc3cc(F)cc(F)c3)cc12	6.61

QUERY: Kindly indicate its recorded pIC50. Item: "Cc1ccc(F)cc1Cc1ccc2[nH]nc(NC(=O)c3ccc(N4CCN(C)CC4)cc3NC3CCOCC3)c2c1"
RESULT: 6.07

QUERY: Kindly indicate its recorded pIC50. Item: "O=C(Nc1n[nH]c2ccc(Cc3cc(F)cc(F)c3)cc12)c1ccc(N2CCNCC2)cc1NC1CCOCC1"
RESULT: 7.89

QUERY: Kindly indicate its recorded pIC50. Item: "CN1CCC(Oc2ccc(C(=O)Nc3n[nH]c4ccc(Cc5cc(F)cc(F)c5)cc34)c(NC3CCOCC3)c2)CC1"
RESULT: 7.37

QUERY: Kindly indicate its recorded pIC50. Item: "CN1CCC(Nc2cc(N3CCN(C)CC3)ccc2C(=O)Nc2n[nH]c3ccc(Cc4cc(F)cc(F)c4)cc23)CC1"
RESULT: 6.36

QUERY: Kindly indicate its recorded pIC50. Item: "CN1CCN(c2ccc(C(=O)Nc3n[nH]c4ccc(Cc5cccc(F)c5)cc34)c(NC3CCOCC3)c2)CC1"
RESULT: 7.74

QUERY: Kindly indicate its recorded pIC50. Item: "COC[C@@H](C)Nc1cc(N2CCN(C)CC2)ccc1C(=O)Nc1n[nH]c2ccc(Cc3cc(F)cc(F)c3)cc12"
RESULT: 7.13

QUERY: Kindly indicate its recorded pIC50. Item: "CN1CCN(c2ccc(C(=O)Nc3n[nH]c4ccc(Cc5cc(F)cc(F)c5)cc34)c(NCCO)c2)CC1"
RESULT: 6.93

QUERY: Kindly indicate its recorded pIC50. Item: "CN1CCN(c2ccc(C(=O)Nc3n[nH]c4ccc(Cc5ccccc5)cc34)c(NC3CCOCC3)c2)CC1"
RESULT: 6.74

###

test: Plasma concentration in Harlan nu/nu mouse at 240 mg/kg, po administered per day for 2 weeks measured 6 hrs post last dose by LC-MS/MS analysis; type: ADME, organism-based
Recorded endpoint: concentration at 6 h (µM)
Write down the numeric answer in µM and omit the unit.

QUERY: Kindly indicate its recorded concentration at 6 h. Item: CN1CCN(c2ccc(C(=O)Nc3n[nH]c4ccc(Cc5cc(F)cc(F)c5)cc34)c(NC3CCOCC3)c2)CC1 [ENTRECTINIB]
RESULT: 4.57

###

assay: AUC (infinity) in Beagle dog at 10 mg/kg, iv administered as single dose by LC-MS/MS analysis; format: ADME, organism-based, Canis lupus familiaris; parameters: dose 10 mg/kg, route intravenous, time infinity; conditions: in vivo
Recorded endpoint: AUC(0-inf) (µM·h)
Write down the numeric answer in µM·h and omit the unit.

QUERY: Kindly indicate its recorded AUC(0-inf). Item: CN1CCN(c2ccc(C(=O)Nc3n[nH]c4ccc(Cc5cc(F)cc(F)c5)cc34)c(NC3CCOCC3)c2)CC1 [ENTRECTINIB]
RESULT: 17.6

###

experiment: Intrinsic clearance in rat hepatocytes at […] after 10 to 90 mins by LC-MS/MS analysis; assay type: ADME, cell-based, Hepatocyte; conditions: read-out: CLH
Recorded endpoint: CLint scaled (mL/min/kg)

[P] O=C(Nc1n[nH]c2ccc(Cc3cc(F)cc(F)c3)cc12)c1ccc(N2CCNCC2)cc1NC1CCOCC1
[Q] CN1CCN(c2ccc(C(=O)Nc3n[nH]c4ccc(Cc5cc(F)cc(F)c5)cc34)c(NCCF)c2)CC1
[R] O=C(Nc1n[nH]c2ccc(Cc3cc(F)cc(F)c3)cc12)c1ccc(CN2CCCCC2)cc1NC1CCOCC1
QUERY: Could you please order the items by CLint scaled, going from the lowest number to the highest? In plain terms: list the labels in the order you were asked to.
RESULT: Q, P, R

[a] CN1CCC(Oc2ccc(C(=O)Nc3n[nH]c4ccc(Cc5cc(F)cc(F)c5)cc34)c(NC3CCOCC3)c2)CC1
[b] CN1CCN(c2ccc(C(=O)Nc3n[nH]c4ccc(Cc5cc(F)cc(F)c5)cc34)c(NC3CCOCC3)c2)CC1
QUERY: Determine, for a and b , which has the greater value of CLint scaled. // caller expects the label of the chosen entry
RESULT: b

###

test: AUC (infinity) in Beagle dog at 10 mg/kg, po administered as single dose by LC-MS/MS analysis; format: ADME, organism-based, Canis lupus familiaris; design: dose 10 mg/kg, time infinity, route oral; conditions: in vivo
Recorded endpoint: AUC(0-inf) (µM·h)
Write down the numeric answer in µM·h and omit the unit.

QUERY: Kindly indicate its recorded AUC(0-inf). Item: "CN1CCN(c2ccc(C(=O)Nc3n[nH]c4ccc(Cc5cc(F)cc(F)c5)cc34)c(NC3CCOCC3)c2)CC1"
RESULT: 5.7

###

assay: Oral bioavailability in Harlan nu/nu mouse at 10 mg/kg administered as single dose by LC-MS/MS analysis; assay type: ADME, organism-based; settings: in vivo
Recorded endpoint: bioavailability (%)

Sample records with bioavailability:
CN1CCN(c2ccc(C(=O)Nc3n[nH]c4ccc(Cc5cc(F)cc(F)c5)cc34)c(NCCF)c2)CC1	99
O=C(Nc1n[nH]c2ccc(Cc3cc(F)cc(F)c3)cc12)c1ccc(CN2CCCCC2)cc1NC1CCOCC1	18
CN1CCC(Oc2ccc(C(=O)Nc3n[nH]c4ccc(Cc5cc(F)cc(F)c5)cc34)c(NC3CCOCC3)c2)CC1	29.3
CN1CCN(c2ccc(C(=O)Nc3n[nH]c4ccc(Cc5cc(F)cc(F)c5)cc34)c(NC3CCOCC3)c2)CC1	77

[a] O=C(Nc1n[nH]c2ccc(Cc3cc(F)cc(F)c3)cc12)c1ccc(N2CCNCC2)cc1NC1CCOCC1
[b] CN1CCN(c2ccc(C(=O)Nc3n[nH]c4ccc(Cc5cc(F)cc(F)c5)cc34)c(N[C@H]3CC[C@H](O)CC3)c2)CC1
QUERY: Determine, for a and b , which has the greater value of bioavailability. // caller expects the label of the chosen entry
RESULT: b
